Attribution: ChEMBL document CHEMBL1126297

System: HT-29
Experiment: Cytotoxicity against human HT-29 colon cell line.
Type: functional
Conditions: read-out: ED50 (the source's name)
pEC50: −log10 of the molar value.
List of pEC50 values.
test readout: pEC50

- compound: "COc1ccc2cc3n(c(=O)c2c1)CCc1c-3cc(OC)c(OC)c1OC"
  system name: "HT-29"
  test readout: "pEC50"
  result: "< 4.60"
- compound: "COC(=O)C(Cc1cc(OC)c(OC)c(OC)c1)c1ccc(OC)cc1 (stereo not drawn)"
  system name: "HT-29"
  test readout: "pEC50"
  result: "< 4.60"
- compound: "COc1ccc(C(=O)c2nccc3c(OC)c(OC)c(OC)cc23)cc1"
  system name: "HT-29"
  test readout: "pEC50"
  result: "< 4.60"
